Reference source: patent US7307082B2

# EXPERIMENTAL_SYSTEM: CRF receptor (Homo sapiens)
# Construct: Cell membranes are prepared according the method of Dieterich and DeSouza (1996); endogenous in cells
# Sequence (P34998 24-415): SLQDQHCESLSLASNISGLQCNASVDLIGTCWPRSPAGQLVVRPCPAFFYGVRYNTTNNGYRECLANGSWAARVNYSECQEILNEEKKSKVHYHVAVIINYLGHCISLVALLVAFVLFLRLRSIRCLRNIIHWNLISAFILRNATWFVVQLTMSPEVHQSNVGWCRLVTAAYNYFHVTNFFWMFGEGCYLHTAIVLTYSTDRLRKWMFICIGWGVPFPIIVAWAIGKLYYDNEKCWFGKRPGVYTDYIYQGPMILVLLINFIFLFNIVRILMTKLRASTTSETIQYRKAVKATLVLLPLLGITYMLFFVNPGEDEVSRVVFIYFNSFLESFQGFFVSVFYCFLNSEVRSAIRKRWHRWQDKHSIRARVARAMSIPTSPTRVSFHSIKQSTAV
# EXPERIMENT_DESCRIPTION: CRF Receptor Binding Assay (competition with [125I]Tyr0-ovine CRF, IMR-32 cell membranes)
# MEASUREMENT_SETUP: Human IMR-32 neuroblastoma cell membranes, 0.05 nM [125I]Tyr0-ovine CRF, 2 hr at 25° C.
RESULT_TYPE: IC50 (nM)
Give bare numbers, in nM.

# input Given the molecule "CCC(CC)N1CCc2c(C)nc(N(CC)c3c(C)cc(C)cc3C)nc21" , what is its reported IC50?
# output 2090
